# TARGET_SYSTEM: NET (Rattus norvegicus)
# Sequence (Q63380 1-617): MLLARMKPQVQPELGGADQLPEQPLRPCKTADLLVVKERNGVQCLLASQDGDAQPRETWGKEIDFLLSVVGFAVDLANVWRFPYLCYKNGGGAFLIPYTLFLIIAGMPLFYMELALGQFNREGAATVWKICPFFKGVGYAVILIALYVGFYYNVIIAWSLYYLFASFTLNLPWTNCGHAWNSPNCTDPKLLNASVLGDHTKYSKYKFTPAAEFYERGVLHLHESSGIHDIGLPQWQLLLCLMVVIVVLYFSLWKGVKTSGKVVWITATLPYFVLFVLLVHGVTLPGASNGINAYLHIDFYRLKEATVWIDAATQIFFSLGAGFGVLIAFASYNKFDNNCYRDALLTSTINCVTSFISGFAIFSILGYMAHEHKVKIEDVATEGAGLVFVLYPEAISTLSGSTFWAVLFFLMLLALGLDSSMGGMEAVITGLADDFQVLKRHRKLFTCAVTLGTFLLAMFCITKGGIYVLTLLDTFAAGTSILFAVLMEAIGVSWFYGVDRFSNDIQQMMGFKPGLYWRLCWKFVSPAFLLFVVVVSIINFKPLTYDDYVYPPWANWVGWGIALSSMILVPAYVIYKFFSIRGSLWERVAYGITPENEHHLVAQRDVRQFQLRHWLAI
# ASSAY: Ex vivo transporter occupancy in rat spinal cord (NET)
# MEASUREMENT_CONDITIONS: projected from rat EC50 accounting for species differences in plasma protein binding
# Procedure: Adult male Sprague Dawley rats (Charles River) were housed under controlled laboratory conditions (temperature at 21±1° C.) on a 12:12 hour light-dark cycle. […] A kinetic radioligand binding assay was used to determine NET and SERT occupancy in rat spinal cord, as described previously in Bourdet et al., J. Pharm. […] One- and two-compartment PK models with first-order absorption and elimination were evaluated. […]
MEASURED_QUANTITY: EC50

Lookup: I have this compound here, `Fc1cc(F)c(OCc2ccccc2C2CCNCC2)c(F)c1` , and I need its recorded EC50.
Found: 17.1 nM
